# System: A-431
# ASSAY_NOTES: Cytotoxicity against human A431 cells after 72 hrs by MTT assay
# Assay type: functional, cell-based
# EXPERIMENTAL_SETUP: A-431, 72 h
This listing pairs compounds with measured IC50.
Give just the number in µM; leave the unit off.

INSERT INTO assay_data (query_smiles, experimental_system, result) VALUES
  ('COc1cccc2c1C(=O)c1c(O)c3c(c(O)c1C2=O)C[C@@](O)(C(=O)CO)C[C@@H]3O[C@H]1C[C@H](N)[C@H](O)[C@H](C)O1', 'A-431', 0.19);

Q: Name the recorded IC50 for Oc1ccccc1-c1nc2cc(Cl)ccc2[nH]1 .
A: 6.16

Value source: ChEMBL document CHEMBL1158342
